From: patent US6545002B1

target: human A3 receptors (hA3) (Homo sapiens, UniProt P0DMS8); construct: expressed in transfected cells; host or cells: HEK-293; experiment: Displacement of [125I]ABA binding at human A3 receptors expressed in HEK-293 cells; conditions: Table 4; footnote a: [125I]ABA; read-out: hA3 Ki (value marked ^a)
Sequence (P0DMS8 whole entry): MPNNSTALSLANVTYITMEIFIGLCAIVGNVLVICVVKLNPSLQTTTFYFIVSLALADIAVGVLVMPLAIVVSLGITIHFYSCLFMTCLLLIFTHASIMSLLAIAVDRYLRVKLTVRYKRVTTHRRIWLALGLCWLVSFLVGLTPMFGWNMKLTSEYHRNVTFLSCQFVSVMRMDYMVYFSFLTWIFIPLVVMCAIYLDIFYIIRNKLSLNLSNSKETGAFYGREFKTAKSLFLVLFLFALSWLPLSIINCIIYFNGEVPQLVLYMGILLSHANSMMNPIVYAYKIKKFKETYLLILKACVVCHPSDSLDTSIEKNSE
pKi: −log10 of the molar value.
OUTCOME MEASURE: pKi

{"columns": ["STRUCTURE NOTATION", "pKi"],
 "data": [
  ["CCCn1c(=O)[nH]c(=O)c2[nH]c(-c3ccc(OCC(=O)NN4C(=O)C(C)=C(C)C4=O)cc3)nc21", 4.85]
]}

(a) CCCn1c(=O)c2[nH]c(-c3ccc(OCC(=O)NN4C(=O)C(C)=C(C)C4=O)cc3)nc2n(CCC)c1=O
(b) CCCn1c(=O)c2[nH]c(-c3ccc(OCC(=O)NNC(C)=O)cc3)nc2n(CCC)c1=O
Response body: label of entry with the larger pKi; valid values a , b . Kindly give the label for the entry you pick. b
(b: 7.51, a: 6.17)
